studyTarget: human μ opioid receptor (Homo sapiens (Human))
methodSummary: Functional activity ([35S]GTPγS binding)
Type: biochemical
details: [35S]GTPγS 0.080 nM, CHO cell membranes, 60 min at 30° C., filtration
pEC50: −log10 of the molar value. Structures can show the parent of a compound that is named as a salt.
assayMetric: pEC50

In [3]: df
Out[3]:
                                   compound  assaymetric  recordedvalue
0  COC1(c2ccnc(C(N)=O)c2)C2CCCC1CN(C1CCOC1)C2 (centres unmarked) [Compound 74, hydrochloride]        pEC50   7.12 to 8.00
1  CCCN1CC2CCCC(C1)C2(OC)c1ccnc(C(N)=O)c1.Cl (centres unmarked) [Compound 91, hydrochloride]        pEC50   7.12 to 8.00
2  COC1(c2ccnc(C(N)=O)c2)C2CCCC1CN(C1CC(F)(F)C1)C2 (centres unmarked) [Compound 82, hydrochloride]        pEC50   7.12 to 8.00
3  COC1(c2cccc(C(N)=O)c2)C2CCCC1CN(Cc1nc3ccccc3[nH]1)C2 (centres unmarked) [Compound 64, hydrochloride]        pEC50         > 8.00
4  COC1(c2cccc(C(N)=O)c2O)C2CCCC1CN(C)C2 (centres unmarked) [Compound 49, hydrochloride]        pEC50         > 8.00
5  COC1(c2cccc(C(N)=O)c2)C2CCCC1CN(CC1(F)CC1)C2 (centres unmarked) [Compound 40, hydrochloride]        pEC50   7.12 to 8.00
6  COC1(c2cccc(C(N)=O)c2)C2CCCC1CN(C1CC3(COC3)C1)C2.O=C(O)CC(O)C(=O)O (centres unmarked) [Compound 133]        pEC50         > 8.00
7  COC1(c2cccc(C(N)=O)c2)C2CCCC1CN(CCC(F)F)C2 (centres unmarked) [Compound 159]        pEC50         > 8.00

---

studyTarget: UniProtKB P35372
methodSummary: Receptor binding, competitive displacement of [3H]DAMGO
details: 0.25 nM [3H]DAMGO, CHO cell membrane protein, 60 min at 25° C.
Structures can show the parent of a compound that is named as a salt.
Catalogue of compounds with associated Ki
assayMetric: Ki

>>> print(df.to_string())
                                   compound  assaymetric  recordedvalue
0  COC1(c2cc(O)cc(C(N)=O)c2)C2CCCC1CN(C)C2 (stereo not shown) [Compound 52, hydrochloride]           Ki         > 5 nM
1  COC1(c2ccnc(C(N)=O)c2)C2CCCC1CN(C1CC3(COC3)C1)C2 (stereo not shown)           Ki         < 1 nM
2  COC1(c2ccnc(C(N)=O)c2)C2CCCC1CN(C1CCC(F)(F)CC1)C2 (stereo not shown) [Compound 7, hydrochloride]           Ki      1 to 5 nM
3  COC1(c2ccnc(C(N)=O)c2)C2CCCC1CN(C1CCCC1)C2 (stereo not shown) [Compound 55, hydrochloride]           Ki         < 1 nM
4  COC1(c2ccnc(C(N)=O)c2)C2CCCC1CN(Cc1ncco1)C2 (stereo not shown) [Compound 113, hydrochloride]           Ki         > 5 nM
5  COC1(c2cccc(C(N)=O)c2)C2CCCC1CN(C[C@H]1[C@@H]3COC[C@@H]31)C2.Cl (stereo partly shown)           Ki         < 1 nM
6  COC1(c2ccnc(C(N)=O)c2)C2CCCC1CN([C@H]1C[C@@H](C)C1)C2 (stereo partly shown) [Compound 130, hydrochloride]           Ki         < 1 nM

---

Catalogue of molecules with associated EC50
studyTarget: human μ opioid receptor (Homo sapiens (Human), UniProt P35372)
methodSummary: Functional activity ([35S]GTPγS binding)
Assay type: biochemical
details: [35S]GTPγS 0.080 nM, CHO cell membranes, 60 min at 30° C., filtration
Counter-ions that a name gives are not always drawn.
assayMetric: EC50

>>> df
                                   molecule                               studytarget  assaymetric     recordedvalue
0  COC1(c2ccnc(C(N)=O)c2)C2CCCC1CN(C[C@@H]1C[C@@H]3C[C@@H]3C1)C2.Cl (stereo partly shown) [Compound 104, hydrochloride]  human μ opioid receptor (Homo sapiens (Human), UniProt P35372)         EC50  0.01 to 0.075 µM
1  COC1(c2ccnc(C(N)=O)c2)C2CCCC1CN(Cc1ccno1)C2 (stereo not shown) [Compound 124, hydrochloride]  human μ opioid receptor (Homo sapiens (Human), UniProt P35372)         EC50        > 0.075 µM
2  Cl.[2H]C([2H])([2H])N1CC2CCCC(C1)C2(OC)c1cccc(C(N)=O)c1 (stereo not shown)  human μ opioid receptor (Homo sapiens (Human), UniProt P35372)         EC50         < 0.01 µM
3  COC1(c2cccc(C(N)=O)c2)C2CCCC1CN(CC1CCS(=O)(=O)CC1)C2 (stereo not shown) [Compound 1, hydrochloride]  human μ opioid receptor (Homo sapiens (Human), UniProt P35372)         EC50        > 0.075 µM
4  COC1(c2cccc(C(N)=O)c2)C2CCCC1CN(CCc1cnn[nH]1)C2.Cl (stereo not shown) [Compound 155, hydrochloride]  human μ opioid receptor (Homo sapiens (Human), UniProt P35372)         EC50         < 0.01 µM
5  COC1(c2ccnc(C(N)=O)c2)C2CCCC1CN(C)C2.Cl (stereo not shown) [Compound 43, hydrochloride]  human μ opioid receptor (Homo sapiens (Human), UniProt P35372)         EC50  0.01 to 0.075 µM
6  COC1(c2cccc(C(N)=O)c2)C2CCCC1CN(Cc1ccccc1)C2 (stereo not shown) [Compound 21, hydrochloride]  human μ opioid receptor (Homo sapiens (Human), UniProt P35372)         EC50         < 0.01 µM

---

Catalogue of compounds with associated Ki
studyTarget: μ-receptor (Homo sapiens (Human), UniProt P35372)
methodSummary: Receptor binding, competitive displacement of [3H]DAMGO
details: 0.25 nM [3H]DAMGO, CHO cell membrane protein, 60 min at 25° C.
Where a name gives a salt, the structure may show the parent alone.
assayMetric: Ki

>>> df
                                   compound  assaymetric  recordedvalue
0  COC1(c2cccc(C(N)=O)c2)C2CCCC1CN(CC1(O)CC1)C2.Cl (stereo not shown) [Compound 46, hydrochloride]           Ki         < 1 nM
1  COC1(c2cccc(C(N)=O)c2)C2CCCC1CN([C@H]1C[C@H]3C[C@H]3C1)C2 (stereo partly shown) [Compound 11, hydrochloride]           Ki         < 1 nM
2  COC1(c2ccnc(C(N)=O)c2)C2CCCC1CN(Cc1cn(C)cn1)C2.Cl (stereo not shown) [Compound 123, hydrochloride]           Ki      1 to 5 nM
3  COC1(c2ccnc(C(N)=O)c2)C2CCCC1CN(C1CC3(CCOCC3)C1)C2 (stereo not shown) [Compound 13, hydrochloride]           Ki         < 1 nM

---

studyTarget: human μ opioid receptor (Homo sapiens (Human), UniProt P35372)
methodSummary: Functional activity ([35S]GTPγS binding)
Format: biochemical
details: [35S]GTPγS 0.080 nM, CHO cell membranes, 60 min at 30° C., filtration
Where a name gives a salt, the structure may show the parent alone.
Catalogue of molecules with associated EC50
assayMetric: EC50

>>> df
                                   molecule                               studytarget  recordedvalue
0  CCCC(C)N1CC2CCCC(C1)C2(OC)c1ccnc(C(N)=O)c1 (stereo not shown) [Compound 118, hydrochloride]  human μ opioid receptor (Homo sapiens (Human), UniProt P35372)    10 to 75 nM
1  COC1(c2cccc(C(N)=O)c2)C2CCCC1CN(CCC(F)(F)F)C2 (stereo not shown) [Compound 34, hydrochloride]  human μ opioid receptor (Homo sapiens (Human), UniProt P35372)        < 10 nM
2  COC1(c2ccnc(C(N)=O)c2)C2CCCC1CN([C@H]1CC[C@@H]1c1ccccc1)C2 (stereo partly shown) [Compound 117, hydrochloride]  human μ opioid receptor (Homo sapiens (Human), UniProt P35372)    10 to 75 nM
3  COC1(c2ccnc(C(N)=O)c2)C2CCCC1CN([C@H]1CCOC1)C2.Cl (stereo partly shown) [Compound 79, hydrochloride]  human μ opioid receptor (Homo sapiens (Human), UniProt P35372)    10 to 75 nM
4  COC1(c2ccnc(C(N)=O)c2)C2CCCC1CN(Cc1cnn[nH]1)C2.Cl (stereo not shown) [Compound 108, hydrochloride]  human μ opioid receptor (Homo sapiens (Human), UniProt P35372)    10 to 75 nM
5  COC1(c2ccnc(C(N)=O)c2)C2CCCC1CN([C@H]1C[C@@H](C)C1)C2 (stereo partly shown) [Compound 130, hydrochloride]  human μ opioid receptor (Homo sapiens (Human), UniProt P35372)    10 to 75 nM
6  COC1(c2ccnc(C(N)=O)c2)C2CCCC1CN(C[C@@H]1CCCO1)C2 (single isomer, unassigned) [Compound 135, hydrochloride]  human μ opioid receptor (Homo sapiens (Human), UniProt P35372)    10 to 75 nM
